System: hTERT-HMEC
protocol-details: percentage of EdU-negative (G0-arrested) nuclei per well, 72 h; higher = more G0 arrest;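 also: secreted proteins added to cultured cells, EdU pulse at the end, nuclei found by Hoechst imaging, EdU status from nuclear versus surrounding ring intensity ratio, PBS as neutral control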
condition-label: protein concentration 0.0225 µM; reference: sequence is the full UniProt precursor, the tested protein was the secreted form or ectodomain
Output Yes for percentage of EdU-negative not less than 5%; output No otherwise.

Worked examples, 4 sequences total:
MMLHSALGLCLLLVTVSSNLAIAIKKEKRPPQTLSRGWGDDITWVQTYEEGLFYAQKSKKPLMVIHHLEDCQYSQALKKVFAQNEEIQEMAQNKFIMLNLMHETTDKNLSPDGQYVPRIMFVDPSLTVRADIAGRYSNRLYTYEPRDLPLLIENMKKALRLIQSEL [Q8TD06] ... Yes
MPAVFMLASSSALQCGRGVPRFPRTEVGAGHSVNEETKAEKVGNQTSVIPATSRQAALGTSWTQRRTQPLQERSHWHPRGNNASGMGGHRMFPGPLRGPAAQVLENECGSLGRAAEGRS [Q8N2X6] ... No
MGSRGQGLLLAYCLLLAFASGLVLSRVPHVQGEQQEWEGTEELPSPPDHAERAEEQHEKYRPSQDQGLPASRCLRCCDPGTSMYPATAVPQINITILKGEKGDRGDRGLQGKYGKTGSAGARGHTGPKGQKGSMGAPGERCKSHYAAFSVGRKKPMHSNHYYQTVIFDTEFVNLYDHFNMFTGKFYCYVPGLYFFSLNVHTWNQKETYLHIMKNEEEVVILFAQVGDRSIMQSQSLMLELREQDQVWVRLYKGERENAIFSEELDTYITFSGYLVKHATEP [Q9BXJ1] ... No
MSGGRAPAVLLGGVASLLLSFVWMPALLPVASRLLLLPRVLLTMASGSPPTQPSPASDSGSGYVPGSVSAAFVTCPNEKVAKEIARAVVEKRLAACVNLIPQITSIYEWKGKIEEDSEVLMMIKTQSSLVPALTDFVRSVHPYEVAEVIALPVEQGNFPYLQWVRQVTESVSDSITVLP ... No

Shifting focus to the sequence that follows.
For this sequence, is measured percentage of EdU-negative 5% or higher? MKTGHFEIVTMLLATMILVDIFQVKAEVLDMADNAFDDEYLKCTDRMEIKYVPQLLKEEKASHQQLDTVWENAKAKWAARKTQIFLPMNFKDNHGIALMAYISEAQEQTPFYHLFSEAVKMAGQSREDYIYGFQFKAFHFYLTRALQLLRKPCEASSKTVVYRTSQGTSFTFGGLNQARFGHFTLAYSAKPQAANDQLTVLSIYTCLGVDIENFLDKESERITLIPLNEVFQVSQEGAGNNLILQSINKTCSHYECAFLGGLKTENCIENLEYFQPIYVYNPGEKNQKLEDHSEKNWKLEDHGEKNQKLEDHGVKILEPTQIPGMKIPEPFPLPEDKSQGNINNPTPGPVPVPGPKSHPSASSGKLLLPQFGMVIILISVSAINLFVAL
No

----------
Property: percentage of EdU-negative; scope: individual sequences
Tested on: MCF7
protocol-details: percentage of EdU-negative (G0-arrested) nuclei per well, 72 h; higher = more G0 arrest
condition-label: protein concentration 0.3125 µM; reference: sequence is the full UniProt precursor, the tested protein was the secreted form or ectodomain
Write the answer as a number in %, unit excluded.

MALLPVLFLVTVLLPSLPAEGKDPAFTALLTTQLQVQREIVNKHNELRKAVSPPASNMLKMEWSREVTTNAQRWANKCTLQHSDPEDRKTSTRCGENLYMSSDPTSWSSAIQSWYDEILDFVYGVGPKSPNAVVGHYTQLVWYSTYQVGCGIAYCPNQDSLKYYYVCQYCPAGNNMNRKNTPYQQGTPCAGCPDDCDKGLCTNSCQYQDLLSNCDSLKNTAGCEHELLKEKCKATCLCENKIY ... 25
MVGPAPRRRLRPLAALALVLALAPGLPTARAGQTPRPAERGPPVRLFTEEELARYGGEEEDQPIYLAVKGVVFDVTSGKEFYGRGAPYNALTGKDSTRGVAKMSLDPADLTHDTTGLTAKELEALDEVFTKVYKAKYPIVGYTARRILNEDGSPNLDFKPEDQPHFDIKDEF [Q9UMX5] ... 23.5
MGFQKFSPFLALSILVLLQAGSLHAAPFRSALESSPADPATLSEDEARLLLAALVQDYVQMKASELEQEQEREGSSLDSPRSKRCGNLSTCMLGTYTQDFNKFHTFPQTAIGVGAPGKKRDMSSDLERDHRPHVSMPQNAN ... 25.5

Suppose we examine the sequence MEMFQGLLLLLLLSMGGTWASREMLRPRCRPINATLAVEKEGCPVCITVNTTICAGYCPTMTRVLQGVLPALPQVVCNYRDVRFESIRLPGCPRGVNPVVSYAVALSCQCALCRRSTTDCGGPKDHPLTCDDPRFQASSSSKAPPPSLPSPSRLPGPSDTPILPQ ; what percentage of EdU-negative value has been reported?
25

----------
Tested on: hTERT-HMEC
protocol-details: percentage of EdU-negative (G0-arrested) nuclei per well, 72 h; higher = more G0 arrest
condition-label: protein concentration 0.225 µM; reference: sequence is the full UniProt precursor, the tested protein was the secreted form or ectodomain
Outcome: 1.0 for percentage of EdU-negative of at least 6%; 0.0 for anything lower.

Example entries begin here.
MGFNLTFHLSYKFRLLLLLTLCLTVVGWATSNYFVGAIQEIPKAKEFMANFHKTLILGKGKTLTNEASTKKVELDNCPSVSPYLRGQSKLIFKPDLTLEEVQAENPKVSRGRYRPQECKALQRVAILVPHRNREKHLMYLLEHLHPFLQRQQLDYGIYVIHQAEGKKFNRAKLLNVGYLEALKEENWDCFIFHDVDLVPENDFNLYKCEEHPKHLVVGRNSTGYRLRYSGYFGGVTALSREQFFKVNGFSNNYWGWGGEDDDLRLRVELQRMKISRPLPEVGKYTMVFHTRDKGNEVNAERMKLLHQVSRVWRTDGLSSCSYKLVSVEHNPLYINITVDFWFGA ... 1.0
MLALLCSCLLLAAGASDAWTGEDSAEPNSDSAEWIRDMYAKVTEIWQEVMQRRDDDGALHAACQVQPSATLDAAQPRVTGVVLFRQLAPRAKLDAFFALEGFPTEPNSSSRAIHVHQFGDLSQGCESTGPHYNPLAVPHPQHPGDFGNFAVRDGSLWRYRAGLAASLAGPHSIVGRAVVVHAGEDDLGRGGNQASVENGNAGRRLACCVVGVCGPGLWERQAREHSERKKRRRESECKAA ... 0.0
MMRCCRRRCCCRQPPHALRPLLLLPLVLLPPLAAAAAGPNRCDTIYQGFAECLIRLGDSMGRGGELETICRSWNDFHACASQVLSGCPEEAAAVWESLQQEARQAPRPNNLHTLCGAPVHVRERGTGSETNQETLRATAPALPMAPAPPLLAAALALAYLLRPLA [Q496H8] ... 0.0
MAARALCMLGLVLALLSSSSAEEYVGLSANQCAVPAKDRVDCGYPHVTPKECNNRGCCFDSRIPGVPWCFKPLQEAECTF ... 0.0
MPMFIVNTNVPRASVPDGFLSELTQQLAQATGKPPQYIAVHVVPDQLMAFGGSSEPCALCSLHSIGKIGGAQNRSYSKLLCGLLAERLRISPDRVYINYYDMNAANVGWNNSTFA ... 1.0

Is it the case that MWVLGIAATFCGLFLLPGFALQIQCYQCEEFQLNNDCSSPEFIVNCTVNVQDMCQKEVMEQSAGIMYRKSCASSAACLIASAGYQSFCSPGKLNSVCISCCNTPLCNGPRPKKRGSSASALRPGLRTTILFLKLALFSAHC [Q8N2G4] has percentage of EdU-negative reaching or exceeding 6%?
0.0

Does the reported percentage of EdU-negative for MSLMVVSMVCVGFFLLQGAWPHEGVHRKPSLLAHPGPLVKSEETVILQCWSDVRFQHFLLHREGKFKDTLHLIGEHHDGVSKANFSIGPMMQDLAGTYRCYGSVTHSPYQLSAPSDPLDIVITGLYEKPSLSAQPGPTVLAGESVTLSCSSRSSYDMYHLSREGEAHERRFSAGPKVNGTFQADFPLGPATHGGTYRCFGSFRDSPYEWSNSSDPLLVSVTGNPSNSWPSPTEPSSETGNPRHLHVLIGTSVVIILFILLLFFLLHRWCCNKKNAVVMDQEPAGNRTVNREDSDEQDPQEVTYAQLNHCVFTQRKITRPSQRPKTPPTDIIVYTELPNAEP fall at or above the 6% mark?
1.0

----------
Test system: MCF7
protocol-details: percentage of EdU-negative (G0-arrested) nuclei per well, 72 h; higher = more G0 arrest
condition-label: protein concentration 0.0225 µM; reference: sequence is the full UniProt precursor, the tested protein was the secreted form or ectodomain
outcome-measure: percentage of EdU-negative (%)
Write the value in % as a bare number.

MKLHYVAVLTLAILMFLTWLPESLSCNKALCASDVSKCLIQELCQCRPGEGNCSCCKECMLCLGALWDECCDCVGMCNPRNYSDTPPTSKSTVEELHEPIPSLFRALTEGDTQLNWNIVSFPVAEELSHHENLVSFLETVNQPHHQNVSVPSNNVHAPYSSDKEHMCTVVYFDDCMSIHQCKISCESMGASKYRWFHNACCECIGPECIDYGSKTVKCMNCMF [Q9GZX9] ... 23.8
MRLGSPGLLFLLFSSLRADTQEKEVRAMVGSDVELSCACPEGSRFDLNDVYVYWQTSESKTVVTYHIPQNSSLENVDSRYRNRALMSPAGMLRGDFSLRLFNVTPQDEQKFHCLVLSQSLGFQEVLSVEVTLHVAANFSVPVVSAPHSPSQDELTFTCTSINGYPRPNVYWINKTDNSLLDQALQNDTVFLNMRGLYDVVSVLRIARTPSVNIGCCIENVLLQQNLTVGSQTGNDIGERDKITENPVSTGEKNAATWSILAVLCLLVVVAVAIGWVCRDRCLQHSYAGAWAVSPETELTGHV ... 27.1

Any idea what its percentage of EdU-negative is? The sequence is MEACCLLQLPQRLLLLGAAALTATALETADLAELCGQTWQGDGLLLRSHAASRRFYFVAPDTDCGLWVQAAAPGDRIRFQFRFFLVYSLTPAPPALNTSSPAPADPCAPGSYLQFYEGPPGAPRPLGSPLCGLNIPVPVASSGPFLGLRLVTRGRQPRVDFVGEVTSFRLGPCGAYFRCQNGRCIPSSLVCDPWGMDNCGDGSDQGSWSPADCRGPSPVPSQTGSTDAHTSRSLTPSPALGSAGSLWIAAERSSPAGRDPTRQDAALEGSTE [Q5SZI1]
24.6
